The following compounds are listed with their measured TGI values.
Tested on: SN12C renal
Experiment: NCI tumour cell line growth inhibition, 48 h

Find the recorded TGI belonging to Cc1ccc(C)c(COc2cc(NC(=O)c3ccc4c(c3)OCO4)ccc2N(C)S(C)(=O)=O)c1 and report it. > 100 µM

Next compound: COC(=O)C(CCC1CC(OC)N(C(=O)OCc2ccccc2)C1)N=Cc1ccccc1 (stereo not drawn) > 100 µM

Next compound: O=C(O)COc1cc(-c2ccccc2)nc2ccc(F)cc12 > 100 µM

###

Tested on: K-562 leukemia
Assay: NCI tumour cell line growth inhibition, 48 h
The following compounds are listed with their measured TGI values.

Take a look at these entries with their results.
1) COc1cnc2c(c1)C(=O)c1c-2n(CCCBr)c(=O)c2cc([N+](=O)[O-])ccc12 : > 100 µM
2) CCCCCCCC/C=C\CCCCCCC/C=C1/C[C@](/C=C/C(=O)OC)(CO)OC1=O : > 32.5 µM

Attention now shifts to the item below.
Find the recorded TGI belonging to Nc1ccc2c(c1)Cc1ccccc1-2 and report it. > 100 µM
